Recorded values, source ChEMBL document CHEMBL1828533.

Biological target: Protein-S-isoprenylcysteine O-methyltransferase (Homo sapiens, UniProt O60725)
Sequence (O60725 whole entry, the tested form may be a part): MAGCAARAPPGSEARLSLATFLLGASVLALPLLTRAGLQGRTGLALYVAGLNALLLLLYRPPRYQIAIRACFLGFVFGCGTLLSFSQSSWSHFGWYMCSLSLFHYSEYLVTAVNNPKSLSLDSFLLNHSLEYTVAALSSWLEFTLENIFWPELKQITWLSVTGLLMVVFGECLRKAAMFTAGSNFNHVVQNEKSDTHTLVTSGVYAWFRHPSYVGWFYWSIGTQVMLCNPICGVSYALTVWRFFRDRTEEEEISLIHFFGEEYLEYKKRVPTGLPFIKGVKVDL
Assay: Inhibition of human ICMT at 10 uM by vapor diffusion assay
Quantity Kind: inhibition (%)

The cases that follow already have their inhibition on record.
- CC(C)=CCC/C(C)=C/CC/C(C)=C/Cc1cn(C[C@H](NC(=O)c2ccccc2Oc2ccccc2)C(=O)O)nn1: 35.9
- CC(=O)N[C@@H](CSC/C=C(\C)COc1ccc(Oc2ccccc2)cc1)C(=O)O: 15.5
- CC(C)=CCC/C(C)=C/CC/C(C)=C/Cc1cn(C[C@H](NC(=O)CCS(=O)(=O)c2ccccc2)C(=O)O)nn1: 22.7
- COc1ccc([N+](=O)[O-])c(C(=O)N[C@@H](Cn2cc(C/C=C(\C)CC/C=C(\C)CCC=C(C)C)nn2)C(=O)O)c1: 10.1
- CC(=O)N[C@@H](CSC/C=C(/Cc1ccc2c(c1)Cc1ccccc1-2)c1ccccc1)C(=O)O: 25.3
- CCCCCCCCc1ccc(CC/C(C)=C/CSC[C@H](NC(C)=O)C(=O)O)cc1: 31.1

1 = CC(=O)N[C@@H](CSC/C=C(\C)COc1ccc2ccccc2c1)C(=O)O
2 = CC(=O)N[C@@H](CSC/C=C(\C)COc1ccc(Cc2ccccc2)cc1)C(=O)O
Of the pair 1 and 2 , name the member with the lesser recorded inhibition. The response must carry the label of the picked entry.
2
